Recorded abundance fitness values for a group of variants are listed next.
B1: Nuclear receptor subfamily 4 group A member 2, residues 260 to 336; numbered along this chain, P43354 (parent)
chain: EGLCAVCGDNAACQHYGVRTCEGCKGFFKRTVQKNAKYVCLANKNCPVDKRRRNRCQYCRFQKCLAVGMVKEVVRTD

# Variants of: B1
# assayNotes: abundance fitness (aPCA) (normalised: wild type 0, dead -1); higher = more abundant; growth selection in yeast, the domain comes from the species named
# experimentalParameters: Homo sapiens
experimentalReadout: abundance fitness

[[record]]
variantcode = "C13H"
experimentalreadout = "abundance fitness"
val = 0.136

[[record]]
variantcode = "N43T"
experimentalreadout = "abundance fitness"
val = -0.505

[[record]]
variantcode = "C13G"
experimentalreadout = "abundance fitness"
val = 0.057

[[record]]
variantcode = "C13M"
experimentalreadout = "abundance fitness"
val = 0.239

[[record]]
variantcode = "R53C"
experimentalreadout = "abundance fitness"
val = -0.078

[[record]]
variantcode = "Q14S"
experimentalreadout = "abundance fitness"
val = 0.117

[[record]]
variantcode = "D49A"
experimentalreadout = "abundance fitness"
val = -0.135

[[record]]
variantcode = "Y16N"
experimentalreadout = "abundance fitness"
val = 0.029

[[record]]
variantcode = "A66L"
experimentalreadout = "abundance fitness"
val = 0.005

[[record]]
variantcode = "Q62A"
experimentalreadout = "abundance fitness"
val = -0.095

[[record]]
variantcode = "D49E"
experimentalreadout = "abundance fitness"
val = 0.033

[[record]]
variantcode = "R52K"
experimentalreadout = "abundance fitness"
val = 0.041

[[record]]
variantcode = "R51F"
experimentalreadout = "abundance fitness"
val = 0.064

[[record]]
variantcode = "D77R"
experimentalreadout = "abundance fitness"
val = -0.3

[[record]]
variantcode = "N54E"
experimentalreadout = "abundance fitness"
val = -0.244

[[record]]
variantcode = "F27S"
experimentalreadout = "abundance fitness"
val = -1.12

[[record]]
variantcode = "V73R"
experimentalreadout = "abundance fitness"
val = -0.099

[[record]]
variantcode = "E72P"
experimentalreadout = "abundance fitness"
val = 0.116

[[record]]
variantcode = "K25M"
experimentalreadout = "abundance fitness"
val = 0.082

[[record]]
variantcode = "G68A"
experimentalreadout = "abundance fitness"
val = -0.26

[[record]]
variantcode = "C46E"
experimentalreadout = "abundance fitness"
val = -1.09

[[record]]
variantcode = "L65G"
experimentalreadout = "abundance fitness"
val = -0.264

